The origin of these recorded values is patent US20220380463A1.

# target-of-assay: T1, Cynomolgus CD3εδ Fc heterodimer (Cy CD3ε Fc / CD3δ Fc-HIS) (cynomolgus, UniProt Q95LI8 22-100)
# T1 chain 1: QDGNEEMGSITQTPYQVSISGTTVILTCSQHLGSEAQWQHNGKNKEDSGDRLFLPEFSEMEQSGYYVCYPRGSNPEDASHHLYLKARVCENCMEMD
# T1 chain 2: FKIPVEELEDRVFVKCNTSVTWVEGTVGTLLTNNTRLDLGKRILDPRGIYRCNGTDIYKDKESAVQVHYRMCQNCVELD
# test-description: BLI (Octet), IgG on AHC sensor, pH 6.0
Here the recorded koff is given for each entry.
Field: numeric (s⁻¹). Do not append units.

| binder | koff (s⁻¹) |
| --- | --- |
| SAD10319_P05_D02 (ADI-57407) (antibody, V domains shown, IgG; also called Ab134) VH: QVQLVQSGAEVKKPGASVKVSCKASGYTFDSYTMHWVRQAPGPRLEWMGSINAGTGNTDYSQKFQGRVTITRDTSASTAYMELSSLRSEDTAVYYCARDHYGHYFYDVWGQGTLVTVSS VL: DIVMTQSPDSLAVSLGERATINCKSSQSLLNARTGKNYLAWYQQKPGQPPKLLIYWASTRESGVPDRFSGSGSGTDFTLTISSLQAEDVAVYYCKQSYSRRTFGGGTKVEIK | 0.0241 |

Now for another entry.
Requested read-out: koff. Entry: SAD10319_P01_C01 (ADI-48621 and ADI-48636) (antibody, V domains shown, IgG; also called Ab230) VH: QVQLVQSGAEVKKPGASVKVSCKASGYTFTDYDMHWVRQAPGQRLEWMGWIDAGTGLTKYSQKFQGRVTITRDTSASTAYMELSSLRSEDTAVYYCARDHYGHYFYDVWGQGTLVTVSS VL: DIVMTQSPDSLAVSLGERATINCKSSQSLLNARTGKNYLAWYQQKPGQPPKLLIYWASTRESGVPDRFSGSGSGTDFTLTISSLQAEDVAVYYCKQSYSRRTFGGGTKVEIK
0.00402
